# Tested on: Saccharomyces cerevisiae;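 note: PSI is a weighted mean of sequencing reads over stability bins, variants kept only with over 10 reads, mCherry proximal and sfGFP distal, peptide attached via GGGS linker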
# measurement_protocol: protein stability index of tFT-peptide fusion (C-terminal peptide) (PSI (0-1 scale)); higher = more stable (slower turnover)
# condition_summary: genetic background: das1 deletion; temperature: 37 C

{"query_sequence": "FRCRFLLPFYSV", "protein stability index": 0.733}
{"query_sequence": "CASVCCFFAWIV", "protein stability index": 0.594}
{"query_sequence": "TVRLPLILPCVL", "protein stability index": 0.567}
{"query_sequence": "WFLRLVGAVFAL", "protein stability index": 0.621}
{"query_sequence": "LVLFYLWSSVWA", "protein stability index": 0.473}
{"query_sequence": "VLLGYPRILSLF", "protein stability index": 0.812}
{"query_sequence": "VCPCCPYVMIAG", "protein stability index": 0.647}
{"query_sequence": "RDASLLFHFFVC", "protein stability index": 0.726}
{"query_sequence": "VCCYILFFLFPV", "protein stability index": 0.568}
{"query_sequence": "WALWGFVFWDWW", "protein stability index": 0.513}
